- RUN DESCRIPTION: in vivo
- APPLIED CONDITIONS: albino, mouse, liver, intravenous
PARAMETER MEASURED: concentration at 0.5 h

>>> reported_value("CCCCCOC(=O)Nc1nc(=O)n([C@@H]2O[C@H](C)[C@@H](O)[C@H]2O)cc1F [capecitabine]")
"13 ng/mL"

---

- RUN DESCRIPTION: in vivo
- APPLIED CONDITIONS: albino, mouse, whole blood, intravenous
PARAMETER MEASURED: concentration at 0.5 h (ng/mL)

>>> reported_value("CCCCCOC(=O)Nc1nc(=O)n([C@@H]2O[C@H](C)[C@@H](O)[C@H]2O)cc1F [capecitabine]")
13.6

---

- RUN DESCRIPTION: in vivo
- APPLIED CONDITIONS: albino, mouse, lungs, intravenous
PARAMETER MEASURED: concentration at 0.5 h (ng/mL)

>>> reported_value("CCCCCOC(=O)Nc1nc(=O)n([C@@H]2O[C@H](C)[C@@H](O)[C@H]2O)cc1F")
12.5
